The measurements presented in this section are drawn from patent US10597388B2.

System: kochia (Kochia scoparia)
Test: Test D controlled growth environment herbicide test, pre- and postemergence
Assay type: in vivo
Conditions: Postemergence, 250 g ai/ha; scale 0 to 100 (0 no effect, 100 complete control)
Documented Plant response rating, Kochia across a set of compounds
No unit in the answer, only the number.

| compound | Plant response rating, Kochia |
| --- | --- |
| Cc1nn(C)c(=O)c(-c2cccc3ccccc23)c1O [Compound 11] | 100 |
| Cc1cc(C)c2ccccc2c1-c1c(O)c(C)nn(C)c1=O [Compound 21] | 85 |
| COC(=O)Oc1c(C)nn(C)c(=O)c1-c1c(C)sc2ccc(C)cc12 [Compound 80] | 100 |
| CCCC(=O)Oc1c(C)nn(C)c(=O)c1-c1c(C)sc2ccc(C)cc12 [Compound 105] | 100 |

# next compound below
Data request: Fill in the blank: the reported Plant response rating, Kochia of Cc1nn(C)c(=O)c(-c2c(C)sc3ccc(Br)cc23)c1O [Compound 22] is ____.
Data returned: 100
